B1: library; numbered along this chain (parent)
chain: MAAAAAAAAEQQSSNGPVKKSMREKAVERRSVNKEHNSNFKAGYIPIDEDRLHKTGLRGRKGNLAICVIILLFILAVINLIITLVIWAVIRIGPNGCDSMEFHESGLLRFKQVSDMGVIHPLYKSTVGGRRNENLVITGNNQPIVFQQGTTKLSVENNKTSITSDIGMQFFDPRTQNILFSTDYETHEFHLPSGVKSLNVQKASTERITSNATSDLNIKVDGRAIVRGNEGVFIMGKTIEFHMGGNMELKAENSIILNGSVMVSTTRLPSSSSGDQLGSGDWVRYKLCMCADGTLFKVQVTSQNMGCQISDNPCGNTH

Variants of: B1
Assay: SGCB cell-surface expression functional score (HA stain, bin4 vs bin1, normalised to synonymous) (log10 ratio); higher = more cell-surface SGCB (functional)
Label class 1 when SGCB cell-surface expression functional score (log10) is at or above -0.1; otherwise label class 0.

Record excerpt, results attached:
- variantLabel: "S161G"
  groupLabel: "class 1"
- variantLabel: "M289I"
  groupLabel: "class 1"
- variantLabel: "N134R"
  groupLabel: "class 0"
- variantLabel: "E206N"
  groupLabel: "class 1"
- variantLabel: "S279V"
  groupLabel: "class 1"

Q: Check if SGCB cell-surface expression functional score (log10) >= -0.1 (inclusive). Item: "N37F"
Ans: class 0

Q: Check if SGCB cell-surface expression functional score (log10) >= -0.1 (inclusive). Item: "N177K"
Ans: class 0

Q: Check if SGCB cell-surface expression functional score (log10) >= -0.1 (inclusive). Item: "R60L"
Ans: class 1

Q: Check if SGCB cell-surface expression functional score (log10) >= -0.1 (inclusive). Item: "H190Q"
Ans: class 1

Q: Check if SGCB cell-surface expression functional score (log10) >= -0.1 (inclusive). Item: "Y285L"
Ans: class 0

Q: Check if SGCB cell-surface expression functional score (log10) >= -0.1 (inclusive). Item: "N134W"
Ans: class 0

Q: Check if SGCB cell-surface expression functional score (log10) >= -0.1 (inclusive). Item: "D98S"
Ans: class 1

Q: Check if SGCB cell-surface expression functional score (log10) >= -0.1 (inclusive). Item: "F189V"
Ans: class 0

Q: Check if SGCB cell-surface expression functional score (log10) >= -0.1 (inclusive). Item: "L75S"
Ans: class 1

Q: Check if SGCB cell-surface expression functional score (log10) >= -0.1 (inclusive). Item: "G59K"
Ans: class 1

Q: Check if SGCB cell-surface expression functional score (log10) >= -0.1 (inclusive). Item: "M235Q"
Ans: class 1

Q: Check if SGCB cell-surface expression functional score (log10) >= -0.1 (inclusive). Item: "Q308D"
Ans: class 1

Q: Check if SGCB cell-surface expression functional score (log10) >= -0.1 (inclusive). Item: "T266V"
Ans: class 1

Q: Check if SGCB cell-surface expression functional score (log10) >= -0.1 (inclusive). Item: "L108T"
Ans: class 1

Q: Check if SGCB cell-surface expression functional score (log10) >= -0.1 (inclusive). Item: "V68F"
Ans: class 1

Q: Check if SGCB cell-surface expression functional score (log10) >= -0.1 (inclusive). Item: "A4N"
Ans: class 0

Q: Check if SGCB cell-surface expression functional score (log10) >= -0.1 (inclusive). Item: "A88R"
Ans: class 0

Recorded values, source the supplement of paper PMC10266784.
